The values you see were collected from paper PMC9482650.

molecular target: Inadl_5, Q8NI35; experiment: holdup assay; parameters: key: below the threshold = too weak to quantify, mostly under pKd 3.1 to 4; conditions: plain residues with an end cap or a label only (N-terminal biotin on a linker: ado-ado)
Sequence (Q8NI35 673-780): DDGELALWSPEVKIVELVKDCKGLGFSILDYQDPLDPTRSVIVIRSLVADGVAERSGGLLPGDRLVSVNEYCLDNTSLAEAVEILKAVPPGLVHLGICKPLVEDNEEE
recorded endpoint: pKd

In [3]: df
Out[3]:
                          binder  recorded_endpoint   experimental_value
 0    REEPDHSTEV [CCRL2, O00421]                pKd  below the threshold
 1    RSSGGDDFWF [KCNV1, Q6PIU1]                pKd  below the threshold
 2    ARSAAASNYV [CLDN4, O14493]                pKd                 3.68
 3    LESTTVGTSV [KARS1, Q15046]                pKd  below the threshold
 4    KKMLQRRTLL [OR8G1, Q15617]                pKd  below the threshold
 5    GTGYDRKDYV [CLDN3, O15551]                pKd                 3.49
 6  PSHPRLQTHV [KIRREL2, Q6UWL6]                pKd  below the threshold
 7   QRPYRRGSEI [KCNJ18, B7U540]                pKd  below the threshold
 8   NTLNRKTTPV [CACNG8, Q8WXS5]                pKd  below the threshold
 9    SPDRDRESIV [SCN5A, Q14524]                pKd  below the threshold
10    NVYGIESVKI [GRIA2, P42262]                pKd  below the threshold
11     DFLSTFHIRI [CIB2, O75838]                pKd  below the threshold
12     QSGLYESEEL [MYOT, Q9UBF9]                pKd  below the threshold
13  ARESQKVSHV [FAM110B, Q8TC76]                pKd  below the threshold
14   RDPPAEWTRV [PTPN18, Q99952]                pKd  below the threshold
15     DRIQSCLSDA [SBF1, O95248]                pKd  below the threshold
16     TNSRHGETTV [FZD2, Q14332]                pKd  below the threshold
17     APIAGFSSFV [SDK2, Q58EX2]                pKd                 3.82
18   NIAESLESLV [PTPRZ1, P23471]                pKd  below the threshold
19      PYPTADHMLA [JUP, P14923]                pKd  below the threshold
20     STKRKLASAV [NCF1, P14598]                pKd  below the threshold
21  SFISKKEWYV [NECTIN1, Q15223]                pKd                 4.82
22  EDPRVEVTQF [SLC22A9, Q8IVM8]                pKd  below the threshold
23  DDASLPVSDV [PLEKHA1, Q9HB21]                pKd  below the threshold
24   NTANRRTTPV [CACNG2, Q9Y698]                pKd  below the threshold
25  LKDDELKTKL [SLCO1A2, P46721]                pKd  below the threshold
26     QKAPTKEFYA [SDC2, P34741]                pKd  below the threshold
27      EPQYQPGENL [SRC, P12931]                pKd  below the threshold
28     SRSVVESDEL [MYPN, Q86TC9]                pKd  below the threshold
29    NISYRRESAI [KCNJ4, P48050]                pKd  below the threshold
30    AQRARSPSDV [GPR12, P47775]                pKd                 3.85
31    PPGKHLVTEV [KCNA7, Q96RP8]                pKd  below the threshold
